- Tested on: Serine/threonine-protein kinase DCLK2 (Homo sapiens) (UniProt Q8N568);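 also: reported value is the mean percent inhibition of DCAMKL2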
- Sequence (Q8N568 whole entry): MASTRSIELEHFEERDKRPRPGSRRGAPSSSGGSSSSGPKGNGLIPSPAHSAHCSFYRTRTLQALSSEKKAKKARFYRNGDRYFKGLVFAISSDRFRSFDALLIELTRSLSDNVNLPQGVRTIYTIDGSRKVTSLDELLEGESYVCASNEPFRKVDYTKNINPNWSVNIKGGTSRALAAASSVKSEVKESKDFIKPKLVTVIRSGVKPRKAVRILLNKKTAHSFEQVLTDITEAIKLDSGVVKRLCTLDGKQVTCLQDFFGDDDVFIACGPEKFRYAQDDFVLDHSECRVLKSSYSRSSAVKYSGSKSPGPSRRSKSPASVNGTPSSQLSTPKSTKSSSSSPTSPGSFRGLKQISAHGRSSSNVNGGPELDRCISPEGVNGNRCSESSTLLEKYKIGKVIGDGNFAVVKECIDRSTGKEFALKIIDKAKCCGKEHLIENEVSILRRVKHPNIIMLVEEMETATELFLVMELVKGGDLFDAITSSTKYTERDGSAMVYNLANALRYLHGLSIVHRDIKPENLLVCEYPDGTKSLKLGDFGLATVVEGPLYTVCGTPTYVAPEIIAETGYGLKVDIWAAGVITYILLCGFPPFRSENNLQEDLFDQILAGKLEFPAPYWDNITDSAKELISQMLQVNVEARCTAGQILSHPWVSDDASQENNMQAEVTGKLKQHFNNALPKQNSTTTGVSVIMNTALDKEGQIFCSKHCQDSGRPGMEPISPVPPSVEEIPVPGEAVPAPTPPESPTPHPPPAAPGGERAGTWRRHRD
- Particulars: at 0.1 µM
Measure: inhibition

| Compound | Measured value |
| --- | --- |
| CCCNc1cccc(-n2ncc3c(N/N=C/c4ccncc4)ncnc32)c1 | 6.83% |
| CC1=C(C(=O)Nc2ccc3[nH]ncc3c2)C(c2ccc(F)cc2)N=C(c2ccc(C(F)(F)F)nc2)N1 (centres undefined) | -2.05% |
| CNC(=O)c1cncc(/C=C/c2ccccc2C)c1 | 0.83% |
| O=C(Nc1n[nH]c2nnc(-c3cccnc3)cc12)C1CC1 | -0.69% |

----------
- Tested on: Leukocyte tyrosine kinase receptor (Homo sapiens) (UniProt P29376);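 also: each value is the mean inhibition of LTK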
- Sequence (P29376 whole entry): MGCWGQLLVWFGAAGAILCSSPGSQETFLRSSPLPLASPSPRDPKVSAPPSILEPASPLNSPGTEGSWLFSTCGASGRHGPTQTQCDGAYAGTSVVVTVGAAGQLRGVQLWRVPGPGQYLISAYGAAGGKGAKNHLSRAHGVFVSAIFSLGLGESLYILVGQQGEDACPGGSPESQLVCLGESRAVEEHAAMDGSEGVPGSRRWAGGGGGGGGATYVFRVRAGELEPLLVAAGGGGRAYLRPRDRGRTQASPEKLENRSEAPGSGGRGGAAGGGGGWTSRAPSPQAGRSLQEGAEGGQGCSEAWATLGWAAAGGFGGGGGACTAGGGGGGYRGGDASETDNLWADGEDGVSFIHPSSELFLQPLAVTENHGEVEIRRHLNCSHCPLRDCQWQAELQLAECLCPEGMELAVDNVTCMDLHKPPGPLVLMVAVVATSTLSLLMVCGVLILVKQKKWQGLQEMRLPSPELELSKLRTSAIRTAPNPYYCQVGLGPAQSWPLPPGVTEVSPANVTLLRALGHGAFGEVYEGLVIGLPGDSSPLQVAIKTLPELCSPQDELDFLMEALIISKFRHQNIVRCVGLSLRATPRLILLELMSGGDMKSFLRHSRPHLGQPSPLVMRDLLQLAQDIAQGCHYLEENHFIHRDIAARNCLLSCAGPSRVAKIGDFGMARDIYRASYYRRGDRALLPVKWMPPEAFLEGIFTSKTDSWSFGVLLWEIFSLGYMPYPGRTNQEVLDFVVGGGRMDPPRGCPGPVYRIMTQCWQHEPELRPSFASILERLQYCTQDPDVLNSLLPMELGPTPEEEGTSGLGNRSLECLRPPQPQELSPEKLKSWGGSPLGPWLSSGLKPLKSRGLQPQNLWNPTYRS
- Particulars: at 1 µM

| Molecule | Tested on | Readout units | inhibition |
| --- | --- | --- | --- |
| N#Cc1ccc2c(-c3ccnc(NC4CC4)n3)c(-c3ccc(F)cc3)nn2c1 | Leukocyte tyrosine kinase receptor (Homo sapiens) (UniProt P29376) | % | -0.2 |
| COc1cccc(Nc2nccc(-c3cnn4ncccc34)n2)c1 | Leukocyte tyrosine kinase receptor (Homo sapiens) (UniProt P29376) | % | 18.2 |
| Cc1cc(O)cc(C)c1/C=C/c1cncc(C(=O)OC(C)(C)C)c1 | Leukocyte tyrosine kinase receptor (Homo sapiens) (UniProt P29376) | % | 2.98 |
| CCN1CCC(C(=O)Nc2n[nH]c3nnc(-c4cccc(F)c4F)cc23)CC1 | Leukocyte tyrosine kinase receptor (Homo sapiens) (UniProt P29376) | % | -0.29 |
| CS(=O)(=O)CCNCc1ccc(-c2ccc3ncnc(Nc4ccc(OCc5cccc(C(F)(F)F)c5)cc4)c3c2)o1 | Leukocyte tyrosine kinase receptor (Homo sapiens) (UniProt P29376) | % | 4.64 |
| CCn1c(-c2nonc2N)nc2cncc(C(=O)NCCNC)c21 | Leukocyte tyrosine kinase receptor (Homo sapiens) (UniProt P29376) | % | 5.16 |
| CS(=O)(=O)CCNCc1ccoc1-c1ccc2ncnc(Nc3ccc(OCc4ccccc4)cc3)c2c1 | Leukocyte tyrosine kinase receptor (Homo sapiens) (UniProt P29376) | % | 1.37 |
| Fc1ccc(Nc2nccc(-c3c(-c4ccc(C(F)(F)F)cc4)nn4ncccc34)n2)cc1F | Leukocyte tyrosine kinase receptor (Homo sapiens) (UniProt P29376) | % | 3.06 |
| CS(=O)(=O)Nc1ccc(-c2ccc3c(NC(=O)C4CC4)n[nH]c3c2)cc1 | Leukocyte tyrosine kinase receptor (Homo sapiens) (UniProt P29376) | % | 3.75 |
| COc1cc(N2CCN(C(C)C)CC2)ccc1Nc1nc(Nc2cccc3ncccc23)c2cc[nH]c2n1 | Leukocyte tyrosine kinase receptor (Homo sapiens) (UniProt P29376) | % | 80.2 |
| COc1ccc2ncn(-c3cc(O[C@H](C)c4ccccc4C(F)(F)F)c(C(N)=O)s3)c2c1 | Leukocyte tyrosine kinase receptor (Homo sapiens) (UniProt P29376) | % | 1.97 |
| COc1ccc(-c2nn3ncccc3c2-c2ccnc(Nc3ccc(F)c(F)c3)n2)cc1 | Leukocyte tyrosine kinase receptor (Homo sapiens) (UniProt P29376) | % | 5.06 |
| Cc1nnc(-c2cccc(-c3ccc(C(=O)NCC4CC4)cc3)c2)o1 | Leukocyte tyrosine kinase receptor (Homo sapiens) (UniProt P29376) | % | 4.76 |
| O=C(O[C@H]1CN[C@H](C#Cc2cc3ncnc(Nc4ccc(OCc5cccc(F)c5)c(Cl)c4)c3s2)C1)N1CCOCC1 | Leukocyte tyrosine kinase receptor (Homo sapiens) (UniProt P29376) | % | 5.96 |
| O=C(Nc1n[nH]c2nnc(-c3cccnc3)cc12)C1CC1 | Leukocyte tyrosine kinase receptor (Homo sapiens) (UniProt P29376) | % | 0.15 |
| NC(=O)c1ccc2c(-c3ccnc(NCCCO)n3)c(-c3ccc(F)cc3)nn2c1 | Leukocyte tyrosine kinase receptor (Homo sapiens) (UniProt P29376) | % | 6.21 |
| CN1CCC(n2cnc(-c3ccc(F)cc3)c2-c2ccnc(NCCO)n2)CC1 | Leukocyte tyrosine kinase receptor (Homo sapiens) (UniProt P29376) | % | 5.36 |
| COc1ccc(Nc2ncc(-c3ccccc3)o2)cc1OC | Leukocyte tyrosine kinase receptor (Homo sapiens) (UniProt P29376) | % | 2.24 |
| COc1c(C(N)=O)cc(-c2ccc(Cl)cc2)cc1-c1ccc(S(N)(=O)=O)cc1 | Leukocyte tyrosine kinase receptor (Homo sapiens) (UniProt P29376) | % | 6.74 |
| O=C(O[C@H]1CN[C@H](C#Cc2cc3ncnc(Nc4ccc5c(ccn5Cc5cc(F)ccc5F)c4)c3s2)C1)N1CCOCC1 | Leukocyte tyrosine kinase receptor (Homo sapiens) (UniProt P29376) | % | 4.15 |
| CC1=C(C(=O)Nc2ccc3[nH]ncc3c2)C(c2ccc(F)cc2)N=C(c2ccc(C(F)(F)F)nc2)N1 (stereo not given) | Leukocyte tyrosine kinase receptor (Homo sapiens) (UniProt P29376) | % | 3.48 |
| CC1=C(C(=O)Nc2ccc3[nH]nc(C)c3c2)C(c2ccc(C(F)(F)F)cc2)CC(=O)N1 (stereo not given) | Leukocyte tyrosine kinase receptor (Homo sapiens) (UniProt P29376) | % | 3.55 |
| CNC(=O)c1sc(-n2cnc3cc(OC)c(OC)cc32)cc1OCc1ccccc1C(F)(F)F | Leukocyte tyrosine kinase receptor (Homo sapiens) (UniProt P29376) | % | 3.95 |
| CS(=O)(=O)Nc1ccc(-c2cc(-c3ccccc3)cc(C(N)=O)c2N)cc1 | Leukocyte tyrosine kinase receptor (Homo sapiens) (UniProt P29376) | % | 2.83 |
| FC(F)(F)CNc1nccc(-c2cnn3ncccc23)n1 | Leukocyte tyrosine kinase receptor (Homo sapiens) (UniProt P29376) | % | 0.86 |
